Experiment: Displacement of Thioflavin S from arachidonic acid-induced synthetic Tau 2N4R aggregate by fluorescence assay
Calls of active or inactive are those of the source. The rule behind the calls is not given here.
Parameter measured: Activity

Examples from the recorded data:
CN(C)c1ccc2nc3ccc(=[N+](C)C)cc-3sc2c1; Active
COc1ccc2nc(/N=N/c3ccc(N(C)C)cc3)sc2c1; Active
O=C(O)c1cc(/N=N/c2ccc(-c3ccc(/N=N/c4ccc(O)c(C(=O)O)c4)cc3)cc2)ccc1O; Active
CN(C)c1ccc(/C=C2\C(=O)Nc3ccc(I)cc32)cc1; Active

Now for the molecule whose Activity we want.
**Query** Input C/N=c1\ccc2nc3ccc(N)cc3sc-2c1 , output reported Activity.
**Result** Active
